Provide the reported Kd of each item.
Biological target: RSV postfusion F (Respiratory syncytial virus) (UniProt P03420+P03420)
Sequence (P03420 26-109, chain 1 of 2): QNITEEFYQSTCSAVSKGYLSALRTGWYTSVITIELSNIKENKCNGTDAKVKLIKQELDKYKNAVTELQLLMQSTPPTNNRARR
Sequence (P03420 137-524, chain 2 of 2): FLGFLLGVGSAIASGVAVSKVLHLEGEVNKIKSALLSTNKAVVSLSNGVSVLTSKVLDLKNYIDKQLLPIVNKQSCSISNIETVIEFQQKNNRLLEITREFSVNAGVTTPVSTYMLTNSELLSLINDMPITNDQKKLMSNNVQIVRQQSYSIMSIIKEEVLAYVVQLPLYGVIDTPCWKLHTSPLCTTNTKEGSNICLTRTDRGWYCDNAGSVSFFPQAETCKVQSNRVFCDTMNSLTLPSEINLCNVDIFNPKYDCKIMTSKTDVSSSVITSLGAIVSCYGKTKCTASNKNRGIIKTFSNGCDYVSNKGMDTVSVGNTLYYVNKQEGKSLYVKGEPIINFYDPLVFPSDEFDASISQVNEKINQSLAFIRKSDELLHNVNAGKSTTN
Test: MST
Details: every U is TAdU (deoxy); T in primer region unmodified; MST: PBS, 0.05% Tween 20, 25 C, 10-20 nM Cy5-aptamer; AlphaScreen: PBS with mucin 10 mg/L, BSA 1 mg/ml, salmon sperm DNA 1 mg/L, RT, 10 nM biotin-aptamer …
Answers are plain numbers, in µM.

[
  {
    "sequence-entry": "GATCGAGCCAGCTACGTCAUGGUUGGGAGGUGUUGUGGGGAUGGUGGGUGGGAGUAUGACAUGCCUCAGCGACUA [D4]",
    "Kd, µM": 2.76
  }
]

Now turn to the next sequence.
Exercise: Which Kd reading was recorded for the sequence GATCGAGCCAGCTACGTCAGUUAUGGUAUAGGUUGGUGGUGGGGGGGGGUUGUGGUGGGACAUGCCUCAGCGACUA [B1] ?
Solution: 3.99

----------
Test system: Influenza H1 hemagglutinin S106 DS26r (Influenza virus H1)
Assay: MST
Details: every U is TAdU (5-[(3-indolyl)propionamide-N-allyl]-2'-deoxyuridine); all sugars deoxyribose; T in primer region unmodified; MST: PBS, 0.05% Tween 20, 25 C, 10-20 nM Cy5-aptamer; AlphaScreen: PBS with mucin 10 mg/L, BSA 1 mg/ml, salmon sperm DNA 1 mg/L, RT, 10 nM biotin-aptamer …
readout-label: Kd (µM)
One number for each entry, in µM.

Exercise: For GATCGAGCCAGCTACGTCAUGCUGUCAAUGGGUGGGUGUGGUGGGGUUGAUGUUAUGUGACAUGCCUCAGCGACUA [A2] , what is its reported Kd?
Solution: 14.7

----------
Molecular target: hMPV prefusion F v3B (Human metapneumovirus) (UniProt Q6WB98)
Sequence (Q6WB98 whole entry, the tested form may be a part): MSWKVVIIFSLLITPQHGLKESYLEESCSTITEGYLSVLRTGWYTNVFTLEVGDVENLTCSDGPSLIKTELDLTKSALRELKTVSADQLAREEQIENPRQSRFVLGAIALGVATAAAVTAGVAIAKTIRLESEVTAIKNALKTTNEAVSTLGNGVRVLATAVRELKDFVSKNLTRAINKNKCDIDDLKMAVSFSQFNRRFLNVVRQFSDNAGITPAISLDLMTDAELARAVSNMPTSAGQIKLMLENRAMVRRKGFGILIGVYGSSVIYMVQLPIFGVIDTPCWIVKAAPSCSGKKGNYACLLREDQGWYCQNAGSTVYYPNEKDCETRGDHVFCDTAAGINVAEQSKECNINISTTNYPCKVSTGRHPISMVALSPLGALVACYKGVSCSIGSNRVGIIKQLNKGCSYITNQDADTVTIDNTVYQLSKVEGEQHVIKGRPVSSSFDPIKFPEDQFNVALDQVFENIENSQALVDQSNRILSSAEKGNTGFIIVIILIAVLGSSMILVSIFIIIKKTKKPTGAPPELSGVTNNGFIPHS
Experiment: MST
Settings: every U is TAdU (5-[(3-indolyl)propionamide-N-allyl]-2'-deoxyuridine); all sugars deoxyribose; T in primer region unmodified; MST: PBS, 0.05% Tween 20, 25 C, 10-20 nM Cy5-aptamer; AlphaScreen: PBS with mucin 10 mg/L, BSA 1 mg/ml, salmon sperm DNA 1 mg/L, RT, 10 nM biotin-aptamer …
readout-label: Kd
In your response, the unit should come after the numeric value.

Exercise: Which Kd is reported for this sequence? GATCGAGCCAGCTACGTCAUGCUGUCAAUGGGUGGGUGUGGUGGGGUUGAUGUUAUGUGACAUGCCUCAGCGACUA [A2]
Solution: 6.95 µM

Reference source: paper PMC10251311
